Experimental Protocol: A549 cell viability effects, profiling panel, calcein-AM fluorescence, 48 h, basal (AID 1162); also: test concentration not given here
Cond: higher = more signal
Could you please report measured z-score for the items listed next?
Numbers only.

Before answering, review these 3 worked examples.
COc1ccccc1CN1C(=O)c2ccccc2[C@@H](C(=O)NC(C)C)[C@@H]1c1ccc(CO)cc1	1.66
C=C(/C=C/CNS(=O)(=O)c1ccc(C)cc1)[C@H](O)[C@H]1CCCN1S(=O)(=O)c1ccccc1[N+](=O)[O-]	0.623
COC(=O)[C@@]1(Cc2ccccc2)[C@H]2c3cc(C(=O)N4CCCC4)n(Cc4ccsc4Br)c3C[C@H]2CN1C(=O)c1ccccc1	-0.991

Parameters: items (list). Returns: z-score for each item.
1. C=C[C@@H](C)[C@H](OC(=O)Nc1ccc(SC)cc1)c1ccc(OCCO)cc1
2. C[C@@H](OCc1ccccc1)C1NC(=O)[C@@]23C(=O)N[C@@H](Cc4ccccc4)C2[C@H](C)[C@@]2(C)O[C@H]2C3/C=C/C/C=C\CNC(=O)CNC1=O (some centres not stated)
3. O=C1NC(=O)C2C1C=CC(C(O)c1ccc(Br)cc1)N2Nc1ccccn1 (configuration not stated)

Reply:
-0.848
0.758
0.636

Query: Can you look up the measured z-score of `O=C1O[C@H](c2ccccc2)[C@H](c2ccccc2)N2[C@H]1[C@@H](C(=O)O)[C@]1(C(=O)Nc3ccccc31)[C@H]2c1ccc(O)cc1` for me?
Reply: 0.29

---

Answer each item with its documented z-score.
Experimental Protocol: A549 cell viability effects, profiling panel, calcein-AM fluorescence, 48 h, basal (AID 1162); also: test concentration not given here
Cond: higher = more signal
Answers are plain numbers.

As a guide, the following entries are already answered.
COCCOC(=O)N1C(=O)[C@@]2(c3cc(C#Cc4ccc(OC)cc4)ccc31)[C@H](C(=O)N1CCN(c3ncccn3)CC1)[C@H]1C(=O)O[C@H](c3ccccc3)[C@H](c3ccccc3)N1[C@@H]2c1ccccc1OCCO	-0.457
CCCCN1CC=CC23O[C@@H]4/C=C\CCC(C)OC(=O)C4[C@H]2C(=O)N(CCCCCCO)[C@@H]3C1=O (stereo not given in full)	-0.0164

List reported z-score for each of these molecules:
1. O=C1NCC(=O)N2[C@@H]1C[C@@H](C(=O)O)[C@H]2c1ccc(O)cc1
2. C=C(COC)/C(=C/C[C@@H](OC(=O)c1ccncc1)c1ccc(CO)o1)c1cnc2ccccc2c1
3. CCN(CC)c1ccc(N2CC=CC34O[C@@H]5/C=C\CCC(C)OC(=O)C5[C@H]3C(=O)N(CCO)[C@@H]4C2=O)cc1 (stereo not given in full)
4. NCCCCCCNC(=O)[C@@H]1C[C@@H]2C(=O)N3CCC[C@H]3C(=O)N2[C@@H]1c1ccc(O)cc1
5. O=C1c2ccccc2[C@](Cc2ccccc2I)(C(=O)NCCN2CCOCC2)[C@H](c2ccc(CO)cc2)N1Cc1ccccc1
6. Cc1ccc(C(C)CC(O)C2C=CC3C(=O)N(c4ccccc4)C(=O)C3N2Nc2ccc(C(C)C)cc2)o1 (stereo not given)

Reply:
1: 0.391; 2: -0.308; 3: 0.17; 4: -0.428; 5: -0.0426; 6: -1.12

Batch request: z-score per item, same order as input.
1. CC(C)N1C(=O)[C@@]2(c3ccc([N+](=O)[O-])cc3)CC(=O)N(C3CCCCC3)[C@@H]2c2ccc(CO)cc21
2. CN(C)CCCNC(=O)[C@@]1(C)c2ccccc2C(=O)N(Cc2cc(C(F)(F)F)cc(C(F)(F)F)c2)[C@H]1c1ccc(CO)cc1
3. CCCN1C(=O)[C@]2(Cc3ccccc3)N=C(c3ccc(OCCCO)cc3)O[C@@H]2c2ccccc21
4. CCCNC(=O)[C@@]1(c2ccc([N+](=O)[O-])cc2)CC(=O)N(C2CCCCC2)[C@@H]1c1ccc(CO)cc1I
5. C=CC[C@@]1(C(=O)O)N=C(c2ccc(OCCCO)cc2)O[C@@H]1c1ccccc1

Reply:
-0.0841
-0.434
0.0649
-0.165
0.819

Dear colleague, could you please provide z-score for the molecules listed below?
1. CC(C)CNC(=O)[C@@H]1c2ccccc2C(=O)N(Cc2cc(F)cc(C(F)(F)F)c2)[C@H]1c1ccc(CO)cc1
2. CC(C)CN1C(=O)[C@@]2(Cc3ccccc31)c1ccccc1C(=O)N(Cc1ccccc1C(F)(F)F)[C@H]2c1ccc(CO)cc1

Reply:
2.21
1.23
